All values here come from ChEMBL document CHEMBL5291721.

# measurement-target: Prostaglandin G/H synthase 1 (Rattus norvegicus); note: assay procedure not described here
# Sequence (Q63921 whole entry): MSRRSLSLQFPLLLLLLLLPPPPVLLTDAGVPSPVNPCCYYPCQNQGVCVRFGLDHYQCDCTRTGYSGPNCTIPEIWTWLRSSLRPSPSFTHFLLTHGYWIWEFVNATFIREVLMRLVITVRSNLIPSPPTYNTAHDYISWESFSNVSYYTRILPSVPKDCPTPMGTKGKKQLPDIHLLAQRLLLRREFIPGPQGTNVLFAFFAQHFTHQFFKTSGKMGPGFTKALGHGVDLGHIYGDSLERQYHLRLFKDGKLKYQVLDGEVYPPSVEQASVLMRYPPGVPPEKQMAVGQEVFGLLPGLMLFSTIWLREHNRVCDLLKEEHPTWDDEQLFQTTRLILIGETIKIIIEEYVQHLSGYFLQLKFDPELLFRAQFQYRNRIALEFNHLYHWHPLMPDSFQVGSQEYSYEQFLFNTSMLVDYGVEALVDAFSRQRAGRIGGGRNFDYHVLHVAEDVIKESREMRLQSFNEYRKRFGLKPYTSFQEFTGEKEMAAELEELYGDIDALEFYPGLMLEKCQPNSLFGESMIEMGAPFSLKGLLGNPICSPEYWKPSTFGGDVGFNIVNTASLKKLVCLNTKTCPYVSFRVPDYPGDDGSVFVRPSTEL
# Format: functional
Give AC50 for every item shown.

[Q] Look up and state reported AC50 for Cc1ccc(-c2nc3ccc(C)cn3c2CC(=O)N(C)C)cc1
[A] > 30 µM

[Q] Please indicate AC50 recorded for NC(N)=Nc1nc(CSCCC(N)=NS(N)(=O)=O)cs1
[A] > 30 µM

[Q] Fill in reported AC50 for this entry: CN1CCCC(n2nc(Cc3ccc(Cl)cc3)c3ccccc3c2=O)CC1 (centres undefined)
[A] > 30 µM

[Q] Please look at this molecule and report its AC50: Nc1nc2ccc(OC(F)(F)F)cc2s1
[A] > 30 µM

[Q] Read off the recorded AC50 for O=C(O)CCCc1ccccc1
[A] > 30 µM

[Q] Give AC50 for NC(=O)c1ncn([C@@H]2O[C@H](CO)[C@@H](O)[C@H]2O)c1O
[A] > 30 µM

[Q] Give reported AC50 value for C[C@@H]1O[C@@H]1P(=O)(O)O
[A] > 10 µM

[Q] Tell us which AC50 value is on record for CN(C)[C@@H]1C(O)=C(C(N)=O)C(=O)[C@@]2(O)C(O)=C3C(=O)c4c(O)ccc(Cl)c4[C@@H](O)[C@H]3C[C@@H]12
[A] > 10 µM

[Q] Give the reported AC50 for this molecule. Cc1c(C(=O)Nc2ccc(N3C[C@@H](C)O[C@@H](C)C3)nc2)cccc1-c1ccc(OC(F)(F)F)cc1
[A] > 30 µM

[Q] Determine from records and report AC50 for Cc1cccc(C)c1NC(=O)C1CCCCN1C (centres undefined) [MEPIVACAINE]
[A] > 30 µM

[Q] Supply measured AC50 of [H]/N=C(/N)c1ccc(NCc2nc3cc(C(=O)N(CCC(=O)O)c4ccccn4)ccc3n2C)cc1 in your reply.
[A] > 30 µM

[Q] Please supply the value of reported AC50 for the item C1=Cc2cccc(OCC3CNCCO3)c2C1 (centres undefined)
[A] > 30 µM

[Q] Check the records and state AC50 for CC(C(=O)O)c1ccc(C(=O)c2cccs2)cc1 (centres undefined)
[A] 0.284 µM

[Q] Hello, please tell me recorded AC50 for this one: Cc1cccc(C)c1OCC(C)N (centres undefined)
[A] > 10 µM

====

# measurement-target: Amine oxidase [flavin-containing] A (Homo sapiens); note: assay procedure not described here
# Sequence (P21397 whole entry): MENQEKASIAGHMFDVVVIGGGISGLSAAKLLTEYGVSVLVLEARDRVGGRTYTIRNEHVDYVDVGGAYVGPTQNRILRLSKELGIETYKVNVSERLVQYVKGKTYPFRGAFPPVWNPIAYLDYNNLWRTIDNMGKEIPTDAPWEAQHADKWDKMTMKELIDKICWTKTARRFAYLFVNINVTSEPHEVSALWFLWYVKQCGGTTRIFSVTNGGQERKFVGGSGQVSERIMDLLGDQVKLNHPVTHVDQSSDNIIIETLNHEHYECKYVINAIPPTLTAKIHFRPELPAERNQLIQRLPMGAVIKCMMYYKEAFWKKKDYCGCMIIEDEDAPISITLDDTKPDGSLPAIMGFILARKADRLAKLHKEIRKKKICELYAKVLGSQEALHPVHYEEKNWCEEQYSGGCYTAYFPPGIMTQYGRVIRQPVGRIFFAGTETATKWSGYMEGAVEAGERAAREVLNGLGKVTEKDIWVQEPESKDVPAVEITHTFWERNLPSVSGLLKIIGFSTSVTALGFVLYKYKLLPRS
# Format: functional
I'd appreciate it if you could supply AC50 values for the items below.

[Q] Give AC50 for the following molecule: Oc1ncnc2[nH]ncc12
[A] > 30 µM

[Q] Answer with the recorded AC50 for the molecule listed here: CCCC(CCC)C(=O)O[C@H]1C[C@H]2CC[C@@H](C1)[N+]2(C)C
[A] > 30 µM

[Q] Assign AC50 to the following record: CCCCCOC(=O)Nc1nc(=O)n([C@@H]2O[C@H](C)[C@@H](O)[C@H]2O)cc1F
[A] > 30 µM

====

# measurement-target: 5-hydroxytryptamine receptor 2C (Homo sapiens, UniProt P28335); note: assay procedure not described here
# Sequence (P28335 whole entry): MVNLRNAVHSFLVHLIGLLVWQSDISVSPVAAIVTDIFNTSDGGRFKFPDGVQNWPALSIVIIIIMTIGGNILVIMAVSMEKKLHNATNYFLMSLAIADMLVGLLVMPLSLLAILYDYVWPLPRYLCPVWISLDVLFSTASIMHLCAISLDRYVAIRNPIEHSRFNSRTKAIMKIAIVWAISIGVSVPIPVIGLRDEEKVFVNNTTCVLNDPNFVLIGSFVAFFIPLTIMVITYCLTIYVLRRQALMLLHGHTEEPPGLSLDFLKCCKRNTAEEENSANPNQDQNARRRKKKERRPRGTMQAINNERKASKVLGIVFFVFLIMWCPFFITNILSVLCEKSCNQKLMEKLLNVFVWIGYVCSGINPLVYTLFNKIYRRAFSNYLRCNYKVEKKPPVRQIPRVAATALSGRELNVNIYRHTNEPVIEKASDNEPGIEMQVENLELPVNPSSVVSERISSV
I'd be grateful if you could share measured AC50 for these entries.

[Q] Report AC50 from 5-hydroxytryptamine receptor 2C (Homo sapiens, UniProt P28335) testing of C1=Cc2cccc(OCC3CNCCO3)c2C1 (centres undefined)
[A] > 10 µM

[Q] Find AC50 for COc1cc(Nc2c(C#N)cnc3cc(OCCCN4CCN(C)CC4)c(OC)cc23)c(Cl)cc1Cl on 5-hydroxytryptamine receptor 2C (Homo sapiens, UniProt P28335) and write it down.
[A] 7 µM

[Q] Jot down AC50 (5-hydroxytryptamine receptor 2C (Homo sapiens, UniProt P28335)) of CCC(C(=O)O)c1ccc(CC(C)C)cc1 (centres undefined) .
[A] > 30 µM

[Q] Write down the reported AC50 (system: 5-hydroxytryptamine receptor 2C (Homo sapiens, UniProt P28335)) of COC(=O)C1=C(C)NC(C)=C(C(=O)OC)C1c1ccccc1[N+](=O)[O-]; note: assay procedure not described here
[A] > 30 µM

[Q] Fill: AC50 (5-hydroxytryptamine receptor 2C (Homo sapiens, UniProt P28335)) for this molecule CCCCN1CCCCC1C(=O)Nc1c(C)cccc1C (centres undefined)
[A] > 30 µM

[Q] State AC50 on 5-hydroxytryptamine receptor 2C (Homo sapiens, UniProt P28335). Entry: Cc1cc2c(OCC(CNC(C)(C)C)OC(=O)c3ccccc3)cccc2[nH]1 (centres undefined)
[A] > 30 µM

[Q] Give 5-hydroxytryptamine receptor 2C (Homo sapiens, UniProt P28335) AC50 for the following molecule: CC(C)C(=O)Nc1ccc([N+](=O)[O-])c(C(F)(F)F)c1 [FLUTAMIDE]
[A] > 30 µM

[Q] Look up and report measured AC50 (5-hydroxytryptamine receptor 2C (Homo sapiens, UniProt P28335)) for the following molecule: CN(C/C=C/c1ccccc1)Cc1cccc2ccccc12
[A] > 30 µM

[Q] Look up and report measured AC50 (5-hydroxytryptamine receptor 2C (Homo sapiens, UniProt P28335)) for the following molecule: O=C(C[S+]([O-])C(c1ccccc1)c1ccccc1)NO (centres undefined)
[A] > 30 µM

[Q] Give AC50; test system 5-hydroxytryptamine receptor 2C (Homo sapiens, UniProt P28335); molecule CN1CCC2=C(C1)C(c1ccccc1)c1ccccc12 (centres undefined); note: assay procedure not described here
[A] > 30 µM

[Q] Please respond with reported AC50 (system 5-hydroxytryptamine receptor 2C (Homo sapiens, UniProt P28335)) for C[C@H]1O[C@H](O[C@H]2[C@H](O)[C@@H](O)[C@@H](O[C@H]3[C@H](O)[C@@H](O)C(O)O[C@@H]3CO)O[C@@H]2CO)[C@H](O)[C@@H](O)[C@@H]1N[C@H]1C=C(CO)[C@@H](O)[C@H](O)[C@H]1O (some centres undefined) . Note: assay procedure not described here.
[A] > 30 µM

[Q] Provide AC50, tested on 5-hydroxytryptamine receptor 2C (Homo sapiens, UniProt P28335), for CC(C)(C(=O)c1cccnc1)c1cccnc1 . Note: assay procedure not described here.
[A] > 30 µM

[Q] Look up and report AC50, with 5-hydroxytryptamine receptor 2C (Homo sapiens, UniProt P28335) as system, for Cc1c(Cl)cccc1Nc1ccccc1C(=O)O
[A] > 30 µM

[Q] Please indicate recorded AC50 of CCC1(C2=CCCCCC2)C(=O)NC(=O)NC1=O measured with 5-hydroxytryptamine receptor 2C (Homo sapiens, UniProt P28335).
[A] > 30 µM

[Q] Report value only: AC50, 5-hydroxytryptamine receptor 2C (Homo sapiens, UniProt P28335), CC(=O)OCC(=O)[C@@]1(O)CC[C@H]2[C@@H]3CCC4=CC(=O)CC[C@]4(C)[C@H]3C(=O)C[C@@]21C [CORTISONE ACETATE]
[A] > 30 µM

[Q] Enter measured AC50, system 5-hydroxytryptamine receptor 2C (Homo sapiens, UniProt P28335), for the molecule shown: CO/N=C(\C(=O)N[C@@H]1C(=O)N2C(C(=O)[O-])=C(C[N+]3(C)CCCC3)CS[C@H]12)c1csc(N)n1; note: assay procedure not described here
[A] > 300 µM

[Q] Consider the molecule CN(CCOc1ccc(NS(C)(=O)=O)cc1)CCc1ccc(NS(C)(=O)=O)cc1 [DOFETILIDE] tested on 5-hydroxytryptamine receptor 2C (Homo sapiens, UniProt P28335); state its AC50. Note: assay procedure not described here.
[A] > 30 µM

[Q] Recall the reported AC50 of NC(=O)C[S+]([O-])C(c1ccccc1)c1ccccc1 (centres undefined) on 5-hydroxytryptamine receptor 2C (Homo sapiens, UniProt P28335) and write it down.
[A] > 30 µM

[Q] // fetch AC50 for O=P(O)(O)C(O)(Cc1cccnc1)P(=O)(O)O ; system: 5-hydroxytryptamine receptor 2C (Homo sapiens, UniProt P28335); note: assay procedure not described here
[A] > 30 µM
